Entry source: patent US11111247B2

Target: FGFR2 (Homo sapiens, UniProt P21802)
Sequence (P21802 22-821 limits assumed): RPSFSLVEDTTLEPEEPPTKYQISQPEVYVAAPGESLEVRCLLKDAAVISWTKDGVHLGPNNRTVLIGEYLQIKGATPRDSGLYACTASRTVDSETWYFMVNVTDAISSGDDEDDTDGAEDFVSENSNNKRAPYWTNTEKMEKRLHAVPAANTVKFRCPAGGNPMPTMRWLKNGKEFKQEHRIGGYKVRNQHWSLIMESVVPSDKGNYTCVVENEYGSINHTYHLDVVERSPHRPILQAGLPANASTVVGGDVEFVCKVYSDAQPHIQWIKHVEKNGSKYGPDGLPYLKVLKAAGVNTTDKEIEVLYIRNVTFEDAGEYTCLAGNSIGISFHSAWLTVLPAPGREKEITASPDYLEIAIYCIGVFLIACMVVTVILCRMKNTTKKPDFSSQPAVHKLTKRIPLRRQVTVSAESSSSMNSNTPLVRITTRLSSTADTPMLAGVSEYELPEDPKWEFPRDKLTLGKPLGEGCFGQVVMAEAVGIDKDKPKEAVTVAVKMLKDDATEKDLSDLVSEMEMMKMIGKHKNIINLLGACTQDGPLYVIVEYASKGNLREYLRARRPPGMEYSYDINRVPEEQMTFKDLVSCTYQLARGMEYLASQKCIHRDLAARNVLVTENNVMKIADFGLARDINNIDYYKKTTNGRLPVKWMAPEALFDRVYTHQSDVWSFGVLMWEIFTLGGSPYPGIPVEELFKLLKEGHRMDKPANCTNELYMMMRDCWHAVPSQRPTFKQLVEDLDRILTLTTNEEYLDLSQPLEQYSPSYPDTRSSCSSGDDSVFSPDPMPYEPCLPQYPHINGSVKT
Test: pFGFR2 Functional Cell HTRF Assay (KATOIII cells)
Assay type: cell-based
Details: read-out: FGFR2 HTRF IC50, 1 hour

{"columns": ["molecule", "IC50"],
 "data": [
  ["CN1CC2CCC(C1=O)N2c1ncc2[nH]nc(-c3cnn(C4CC4)c3)c2n1 (single isomer, unassigned)", "< 100 nM"]
]}

###

Molecular target: FGFR1 (UP) (Homo sapiens (Human), UniProt P11362)
Sequence (P11362 22-822): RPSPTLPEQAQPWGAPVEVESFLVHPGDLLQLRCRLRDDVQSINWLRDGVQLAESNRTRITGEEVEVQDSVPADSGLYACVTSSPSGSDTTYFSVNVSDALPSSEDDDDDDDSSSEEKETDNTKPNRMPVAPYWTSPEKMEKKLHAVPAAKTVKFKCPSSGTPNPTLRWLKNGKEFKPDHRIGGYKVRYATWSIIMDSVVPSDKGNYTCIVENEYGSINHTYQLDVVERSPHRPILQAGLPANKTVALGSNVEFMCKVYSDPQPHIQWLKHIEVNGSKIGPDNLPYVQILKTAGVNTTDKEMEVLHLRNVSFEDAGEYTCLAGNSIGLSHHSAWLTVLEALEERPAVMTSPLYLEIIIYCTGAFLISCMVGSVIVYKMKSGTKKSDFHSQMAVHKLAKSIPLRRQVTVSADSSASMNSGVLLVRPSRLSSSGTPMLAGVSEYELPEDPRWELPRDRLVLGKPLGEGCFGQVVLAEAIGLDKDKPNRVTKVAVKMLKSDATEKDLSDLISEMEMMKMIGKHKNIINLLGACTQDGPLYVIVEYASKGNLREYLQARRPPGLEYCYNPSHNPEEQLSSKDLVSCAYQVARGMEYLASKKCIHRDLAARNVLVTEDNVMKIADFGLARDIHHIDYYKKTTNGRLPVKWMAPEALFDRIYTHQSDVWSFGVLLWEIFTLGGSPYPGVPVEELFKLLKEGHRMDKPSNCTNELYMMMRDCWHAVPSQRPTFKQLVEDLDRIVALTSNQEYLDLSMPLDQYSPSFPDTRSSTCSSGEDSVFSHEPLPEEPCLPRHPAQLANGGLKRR
Test: FGFR Enzymatic Assay, FGFR1 un-phosphorylated
Conditions: read-out: FGFR1 (UP) IC50; un-phosphorylated enzyme, ATP near or below Km

{"columns": ["molecule", "target", "IC50"],
 "data": [
  ["C[C@@H]1CN(c2ccc(-c3n[nH]c4cnc(N5[C@@H]6CC[C@H]5CN(C(=O)N5CCCC5)C6)nc34)cn2)CCN1", "FGFR1 (UP) (Homo sapiens (Human), UniProt P11362)", "> 2 µM"],
  ["C[C@@H]1CN(c2ccc(-c3n[nH]c4cnc(N5C[C@@H]6C[C@H]5CN6C(=O)N5CCCC5)nc34)cn2)CCN1", "FGFR1 (UP) (Homo sapiens (Human), UniProt P11362)", "> 2 µM"],
  ["COCCN1CCN(c2ncc3[nH]nc(-c4cnn(C)c4)c3n2)C(C)C1=O (stereo not shown)", "FGFR1 (UP) (Homo sapiens (Human), UniProt P11362)", "> 2 µM"],
  ["COC(=O)N1C[C@@H](C)N(c2ncc3[nH]nc(-c4ccc(N5CCO[C@H](C)C5)nc4)c3n2)[C@@H](C)C1", "FGFR1 (UP) (Homo sapiens (Human), UniProt P11362)", "> 2 µM"],
  ["CN1CCN(c2ccc(-c3n[nH]c4cnc(N5C6CCC5C(=O)N(C)C6)nc34)cn2)CC1 (stereo not shown)", "FGFR1 (UP) (Homo sapiens (Human), UniProt P11362)", "< 0.1 µM"],
  ["CN1CC2CCC(C1=O)N2c1ncc2[nH]nc(-c3cnn(C)c3)c2n1 (stereo not shown)", "FGFR1 (UP) (Homo sapiens (Human), UniProt P11362)", "< 0.1 µM"],
  ["COCC(=O)N1C[C@@H](C)N(c2ncc3[nH]nc(-c4ccc(N5CCN[C@H](C)C5)nc4)c3n2)[C@@H](C)C1", "FGFR1 (UP) (Homo sapiens (Human), UniProt P11362)", "> 2 µM"]
]}
